Hey, just so you know, these numbers are from paper PMC5081312.

Listing of entries alongside the reported EC50.
# System: cyprids of barnacle B. amphitrite
# methodNotes: Anti-larval settlement bioassay (antifouling activity and larval toxicity)
# Format: in vivo
# assayContext: cyprids of B. amphitrite, 48 h at 28 °C, concentration where 50% of larvae were inhibited to settle vs negative control; read-out: EC50 (larval settlement inhibition)
Field format: number, assumed µM, no unit text.

Previously resolved entries follow.
- COc1cc(O)c(-c2c3c(c(O)c4c(OC)cc(O)cc24)C(=O)C=C(C)C3=O)c2cc3c(c(O)c12)C(=O)C[C@@](C)(O)C3 [compound 38, Asperinine B]: 39.5
- COc1cc(C)c(C(=O)O[C@@H]2[C@H](OC(C)=O)[C@@H](COC(C)=O)O[C@H]2n2ccc(=O)[nH]c2=O)c(OC)c1: 44.5
- C/C(=C\[C@H](O)C[C@@H](C)CCCc1ccoc1)CCCc1ccoc1: 6.06

Consider the additional compound presented here.
[in] Fill in the blank: the reported EC50 of CC[C@H](O)c1cc(O)c2c(c1)C(=O)c1cc(O)cc(O)c1C2=O is ____.
[out] 11.9
